- Tested on: recombinant guanylate cyclase reporter cell line
- EXPERIMENT_NOTES: Effect on a recombinant guanylate cyclase reporter cell line
- Type: cell-based
- CONDITION_PARAMETERS: in some cases mean values for individual determinations

COMPOUND: Cc1nc2c(OCc3c(F)cccc3F)cccn2c1C(=O)NCC(C)(N)CC(F)F (single isomer, unassigned; enantiomer b) [Example 4]
TESTED_ON: recombinant guanylate cyclase reporter cell line
MEC (minimum effective concentration) (µM): 0.3
//
COMPOUND: Cc1nc2c(OCc3c(F)cccc3F)cccn2c1C(=O)NCC(C)(N)CC(F)F (single isomer, unassigned; enantiomer a) [Example 3]
TESTED_ON: recombinant guanylate cyclase reporter cell line
MEC (minimum effective concentration) (µM): 0.3
//
COMPOUND: Cc1nc2c(OCc3c(F)ccc(F)c3F)cccn2c1C(=O)NCC(C)(N)CCC(F)(F)F (single isomer, unassigned; enantiomer b) [Example 7]
TESTED_ON: recombinant guanylate cyclase reporter cell line
MEC (minimum effective concentration) (µM): 0.09
//
COMPOUND: Cc1nc2c(OCc3c(F)cccc3F)cccn2c1C(=O)NCC(C)(N)CCC(F)(F)F (single isomer, unassigned; enantiomer a) [Example 5]
TESTED_ON: recombinant guanylate cyclase reporter cell line
MEC (minimum effective concentration) (µM): 0.1
//
COMPOUND: Cc1nc2c(OCc3c(F)cccc3F)cccn2c1C(=O)NCC(C)(N)CCC(F)(F)F (single isomer, unassigned; enantiomer b) [Example 6]
TESTED_ON: recombinant guanylate cyclase reporter cell line
MEC (minimum effective concentration) (µM): 0.03
//
COMPOUND: Cc1nc2c(OCc3c(F)cccc3F)cccn2c1C(=O)NCC(C)(N)CCCF (single isomer, unassigned; enantiomer b) [Example 2]
TESTED_ON: recombinant guanylate cyclase reporter cell line
MEC (minimum effective concentration) (µM): 0.3
//
COMPOUND: Cc1nc2c(OCc3c(F)cccc3F)cccn2c1C(=O)NCC(C)(N)CCCF (single isomer, unassigned; enantiomer a) [Example 1]
TESTED_ON: recombinant guanylate cyclase reporter cell line
MEC (minimum effective concentration) (µM): 0.3
